- Test system: Ribosome
- measurement-description: Inhibition of ribosome-mediated protein synthesis in rabbit reticulocyte lysates in presence of S-30 extracts by fire fly luciferase synthesis based cell-free translation assay
- Parameters: species or system Oryctolagus cuniculus
Give IC50 for every item shown.
Give bare numbers, in µg/mL.

Please review the entries below; each comes with its answer.
1) NC[C@@H]1O[C@H](O[C@H]2[C@@H](O)[C@H](O[C@@H]3[C@@H](O)[C@H](N)C[C@H](N)[C@H]3O[C@H]3O[C@H](CO)[C@@H](O)[C@H](O)[C@H]3N)O[C@@H]2CO)[C@H](N)[C@@H](O)[C@@H]1O    9.78
2) NC[C@@H]1O[C@H](O[C@H]2[C@@H](O)[C@H](O[C@@H]3[C@@H](O)[C@H](N)C[C@H](N)[C@H]3O[C@H]3O[C@H](CO)[C@@H](OCO[C@H]4O[C@H](CO)[C@@H](O)[C@H](O)[C@H]4O)[C@H](O)[C@H]3N)O[C@@H]2CO)[C@H](N)[C@@H](O)[C@@H]1O    43.14
3) CN[C@@H]1[C@@H](O[C@H]2O[C@H](CO)[C@@H](N)[C@H](O)[C@H]2O)O[C@H]2C[C@@H](N)[C@@H](O[C@H]3[C@H](O)[C@@H](O)[C@H](N)C[C@@H]3N)O[C@@H]2[C@@H]1O    23.77

Next compound, IC50 to be filled in.
Which IC50 is reported with Ribosome for this entry: NC[C@@H]1O[C@H](O[C@H]2[C@@H](O)[C@H](O[C@@H]3[C@@H](O)[C@H](N)C[C@H](N)[C@H]3O[C@H]3O[C@H](CO)[C@@H](O[C@@H]4O[C@H](CO)[C@H](O)[C@H](O)[C@H]4O)[C@H](O)[C@H]3N)O[C@@H]2CO)[C@H](N)[C@@H](O)[C@@H]1O ? 104.57

* * *

Give IC50 for every item shown.
- measurement-description: Inhibition of human ribosome containing eukaryotic ribosomal RNA A-site Cyt14 allele in rabbit reticulocyte lysates assessed as reduction in ribosome-mediated protein synthesis in presence of S-30 extracts by fire fly luciferase synthesis based cell-free translation assay
Numbers only, in µg/mL.

1) NC[C@@H]1O[C@H](O[C@H]2[C@@H](O)[C@H](O[C@@H]3[C@@H](O)[C@H](N)C[C@H](N)[C@H]3O[C@H]3O[C@H](CO)[C@@H](OCO[C@H]4O[C@H](CO)[C@@H](O)[C@H](O)[C@H]4O)[C@H](O)[C@H]3N)O[C@@H]2CO)[C@H](N)[C@@H](O)[C@@H]1O    130.61

Fill blank: measured IC50 of the molecule NC[C@@H]1O[C@H](O[C@H]2[C@@H](O)[C@H](O[C@@H]3[C@@H](O)[C@H](N)C[C@H](N)[C@H]3O[C@H]3O[C@H](CO)[C@@H](O[C@@H]4O[C@H](CO)[C@@H](N)[C@H](O)[C@H]4O)[C@H](O)[C@H]3N)O[C@@H]2CO)[C@H](N)[C@@H](O)[C@@H]1O is ____. 21.43

* * *

- tested-system: Bacterial 70S ribosome
- measurement-description: Inhibition of Mycobacterium smegmatis ribosome containing wild type ribosomal RNA A-site in rabbit reticulocyte lysates assessed as reduction in ribosome-mediated protein synthesis in presence of S-30 extracts by fire fly luciferase synthesis based cell-free translation assay
result-type: pIC50
Give bare numbers, as −log10 of the molar value.

Please review the entries below; each comes with its answer.
1) NC[C@@H]1O[C@H](O[C@H]2[C@@H](O)[C@H](O[C@@H]3[C@@H](O)[C@H](N)C[C@H](N)[C@H]3O[C@H]3O[C@@H]4COC(CCc5ccccc5)O[C@H]4[C@H](O)[C@H]3N)O[C@@H]2CO)[C@H](N)[C@@H](O)[C@@H]1O (some centres undefined)    6.86
2) NC[C@@H]1O[C@H](O[C@H]2[C@@H](O)[C@H](O[C@@H]3[C@@H](O)[C@H](N)C[C@H](N)[C@H]3O[C@H]3O[C@H](CO)[C@@H](O[C@@H]4O[C@H](CO)[C@@H](N)[C@H](O)[C@H]4O)[C@H](O)[C@H]3N)O[C@@H]2CO)[C@H](N)[C@@H](O)[C@@H]1O    6.43
3) NC[C@@H]1O[C@H](O[C@H]2[C@@H](O)[C@H](O[C@@H]3[C@@H](O)[C@H](N)C[C@H](N)[C@H]3O[C@H]3O[C@H](CO)[C@@H](O[C@@H]4O[C@H](CO)[C@@H](O)[C@H](O)[C@H]4O)[C@H](O)[C@H]3N)O[C@@H]2CO)[C@H](N)[C@@H](O)[C@@H]1O    6.32

Next compound, pIC50 to be filled in.
Fill blank: measured pIC50 of the compound NC[C@@H]1O[C@H](O[C@H]2[C@@H](O)[C@H](O[C@@H]3[C@@H](O)[C@H](N)C[C@H](N)[C@H]3O[C@H]3O[C@H](CO)[C@@H](O[C@H]4O[C@H](CO)[C@@H](O)[C@H](O)[C@@H]4O)[C@H](O)[C@H]3N)O[C@@H]2CO)[C@H](N)[C@@H](O)[C@@H]1O is ____. 6.43
